Molecular target: T1, LIN7A, O14910
T1 sequence (O14910 103-200, limits assumed, looked up): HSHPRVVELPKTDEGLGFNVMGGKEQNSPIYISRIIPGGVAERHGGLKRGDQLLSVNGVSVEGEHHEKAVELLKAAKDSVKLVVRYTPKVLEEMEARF
Assay: holdup assay
Parameters: key: below the threshold = too weak to quantify, mostly under pKd 3.1 to 4
Settings: plain residues with an end cap or a label only (N-terminal biotin on a linker: ado-ado)
metricName: pKd

Consider the following illustrative entries.
QRYPGNQTTC [CCL24, O00175]
below the threshold
DLLGGGSDSI [TNRC6B, Q9UPQ9]
below the threshold
FLVTEFNVML [DFNB31, Q9P202]
below the threshold
EPAKETTTNV [SLC2A3, P11169]
below the threshold
WAKEKQHTRL [SLC17A1, Q14916]
below the threshold

Recorded pKd (binder LPPPESESKV [KCNJ9, Q92806] ): below the threshold

Recorded pKd (binder DFKHTKSFII [JAM2, P57087] ): below the threshold

Recorded pKd (binder GVHSNDHSVV [LPAR1, Q92633] ): below the threshold

Source listed as paper PMC9482650.
